Measured IC50 on Bromodomain-containing protein 4 (Homo sapiens) follows.

- Smi: "CC(=O)N1CCc2c(c(-c3cncc4ccccc34)nn2C2CCOCC2)C1"
  Target Under Test: "Bromodomain-containing protein 4 (Homo sapiens)"
  IC50: "> 20 µM"
- Smi: "CC(=O)N1CCc2c(c(-c3cccc4c[nH]c(=O)cc34)nn2C2CCOCC2)C1"
  Target Under Test: "Bromodomain-containing protein 4 (Homo sapiens)"
  IC50: "> 20 µM"
- Smi: "CC(=O)N1CCc2c(c(-c3cc(CO)cc4ccncc34)nn2C2CCOCC2)C1"
  Target Under Test: "Bromodomain-containing protein 4 (Homo sapiens)"
  IC50: "> 20 µM"
